System: Plasmodium berghei
Test: Screen against P. berghei liver stage (PbLuc), transformed with Luciferase, at 10uM
Format: functional, HepG2
Applied Conditions: tested at 10 uM
The whole screen tested about 69,000 compounds, of which about 8,600 (12%) showed an effect of 50% or more. Many of the other results were omitted from the sample, so strong results are more common in it than they were.
Consider the following compounds; for each one, report its INHIBITION.
Value expressed in %; do not type the unit.

Req: Indicate the recorded INHIBITION value for this compound: CC(NS(C)(=O)=O)C(=O)N(C)Cc1csc(-c2cccs2)n1 (stereo unspecified)
Resp: -102

Req: Indicate the recorded INHIBITION value for this compound: CNC(=O)C(C)S(=O)(=O)Cc1csc(-c2cccs2)n1 (stereo unspecified)
Resp: 30.1

Req: Indicate the recorded INHIBITION value for this compound: Cc1cc(C)n(CC2CCCN2C(=O)c2ccc3nncn3c2)n1 (stereo unspecified)
Resp: -54.6

Req: Indicate the recorded INHIBITION value for this compound: CN(Cc1csc(-c2cccs2)n1)Cc1cccnc1N
Resp: 55.9

Req: Indicate the recorded INHIBITION value for this compound: CCc1nc(CN(C)Cc2nnc(-c3cccs3)o2)cs1
Resp: 7.81

Req: Indicate the recorded INHIBITION value for this compound: COC(=O)NCC(=O)N(C)Cc1csc(-c2cccs2)n1
Resp: 49.2

* * *

System: Plasmodium berghei
Test: Screen against P. berghei liver stage (PbLuc), transformed with Luciferase, at 10uM
Format: functional, HepG2
Applied Conditions: tested at 10 uM
Screen size: about 69,000 compounds; about 8,600 (12%) showed an effect of 50% or more. The sample as a whole holds a higher share of strong results than the screen did.
Consider the following molecules; for each one, report its INHIBITION.
Value expressed in %; do not type the unit.

Req: Indicate the recorded INHIBITION value for this molecule: O=C(CCO)N1C[C@@H]2CC[C@H]1CN(C1Cc3ccccc3C1)C2
Resp: -43.5

Req: Indicate the recorded INHIBITION value for this molecule: O=C(CC1CC1)N1C[C@@H]2CN(c3ccccc3)C(=O)[C@@H]2C1
Resp: -15.9

Req: Indicate the recorded INHIBITION value for this molecule: CC(C)N(C)Cc1n[nH]c2c1CCN(C(=O)c1ccc[nH]1)C2
Resp: 2.79

Req: Indicate the recorded INHIBITION value for this molecule: CCOc1ccccc1N1CCN(CC2(O)CCCNC2)CC1 (stereo unspecified)
Resp: 29.2

Req: Indicate the recorded INHIBITION value for this molecule: Cn1nccc1CNS(=O)(=O)c1cc(F)ccc1Br
Resp: 6.02

Req: Indicate the recorded INHIBITION value for this molecule: Cc1ccccc1N1CCCN(CC2(O)CCCNC2)CC1 (stereo unspecified)
Resp: 39.9

Req: Indicate the recorded INHIBITION value for this molecule: CCn1cc(CN2CCCN(C(=O)c3sc(C)nc3C)CC2)cn1
Resp: 7.08

Req: Indicate the recorded INHIBITION value for this molecule: Cc1cc(C(=O)N(CC(C)C)CC(O)c2ccc(F)cc2)[nH]n1 (stereo unspecified)
Resp: -36.4

Req: Indicate the recorded INHIBITION value for this molecule: Nc1nccnc1C(=O)NC1CCCN(Cc2c(F)cccc2F)C1 (stereo unspecified)
Resp: 21.8

Req: Indicate the recorded INHIBITION value for this molecule: O=C1CCCN1c1cccc(CNCc2nc(-c3ccco3)no2)c1
Resp: -8

Req: Indicate the recorded INHIBITION value for this molecule: Cc1cccnc1NC(=O)NC(CCO)C(C)(C)C (stereo unspecified)
Resp: 28.3
